Tested on: CP269
Assay: qHTS profiling for inhibitors of Plasmodium falciparum proliferation (AID 504749); note: nearly all actives have a fitted effect of over 60% in size
Settings: P. falciparum in erythrocytes, SYBR Green DNA, 72 h; series mostly up to 28.7 µM
Results filed as inconclusive are left out. Active and inactive are the calls of the source. Calls come from the whole dose curve; as a rule, active = well fitted inhibition curve with a large enough effect; inconclusive = small, poorly fitted or top-dose-only effect; inactive = flat fitted curve, though single readings scatter.
// allowed return values: Yes = active, No = inactive

Per the records of this test, what outcome belongs to COC(=O)C(CN)c1c[nH]c2ccc(OC)cc12 (centres undefined) ? No

Per the records of this test, what outcome belongs to O=P(O)(O)O ? No

Per the records of this test, what outcome belongs to Cc1nc(NS(=O)(=O)c2ccc(N)cc2)nc(C)c1Br ? No

Per the records of this test, what outcome belongs to FCOC(C(F)(F)F)C(F)(F)F ? No

Per the records of this test, what outcome belongs to CC1CC(OC(=O)C(O)c2ccccc2)CC(C)(C)C1 (centres undefined) ? No

Per the records of this test, what outcome belongs to COc1ccc(/C=N/NC(=O)c2ccncc2)c(C(=O)O)c1OC ? No

Per the records of this test, what outcome belongs to O=C(NNCS(=O)(=O)O)c1ccncc1 ? No

Per the records of this test, what outcome belongs to Cc1cccc(C)c1NC(=O)C1CCCCN1C (centres undefined) ? No

Per the records of this test, what outcome belongs to C=CCOc1ccc(CC(=O)O)cc1Cl ? No

Per the records of this test, what outcome belongs to CCCCCCCCCCCCCCCCCC(=O)OC[C@@H](O)[C@H]1OC[C@H](O)[C@H]1O ? No

Per the records of this test, what outcome belongs to O=C(O)CCCC/C=C(\c1ccccc1)c1cccnc1 ? No

Per the records of this test, what outcome belongs to O=C(O)C1=C(CSc2nnnn2CS(=O)(=O)O)CS[C@@H]2[C@H](NC(=O)[C@H](O)c3ccccc3)C(=O)N12 ? No

Per the records of this test, what outcome belongs to CNC(=O)c1c(I)c(C(=O)NCC(=O)Nc2c(I)c(C(=O)O)c(I)c(C(=O)NCCO)c2I)c(I)c(N(C)C(C)=O)c1I ? No

Per the records of this test, what outcome belongs to CC1=CCC2CC1C2(C)C (centres undefined) ? No

Per the records of this test, what outcome belongs to C=CC[C@@H]1/C=C(\C)C[C@H](C)C[C@H](OC)[C@H]2O[C@@](O)(C(=O)C(=O)N3CCCC[C@H]3C(=O)O[C@H](/C(C)=C/[C@@H]3CC[C@@H](O)[C@H](OC)C3)[C@H](C)[C@@H](O)CC1=O)[C@H](C)C[C@@H]2OC ? Yes

Per the records of this test, what outcome belongs to NCC[C@H](O)C(=O)N[C@@H]1C[C@H](N)[C@@H](O[C@H]2O[C@H](CN)CC[C@H]2N)[C@H](O)[C@H]1O[C@H]1O[C@H](CO)[C@@H](O)[C@H](N)[C@H]1O ? No

Per the records of this test, what outcome belongs to O=C1CCC(c2ccccc2)(C2CCN(Cc3ccccc3)CC2)C(=O)N1 (centres undefined) ? No

Per the records of this test, what outcome belongs to O=C1[O][Bi][O]c2ccccc21 ? No

Per the records of this test, what outcome belongs to Oc1ccc(Cl)c2c1CCC2 ? No
